Quick reference for Kb among some molecules
# testSystem: Human OX1 receptor (Homo sapiens)
# Sequence (O43613 whole entry): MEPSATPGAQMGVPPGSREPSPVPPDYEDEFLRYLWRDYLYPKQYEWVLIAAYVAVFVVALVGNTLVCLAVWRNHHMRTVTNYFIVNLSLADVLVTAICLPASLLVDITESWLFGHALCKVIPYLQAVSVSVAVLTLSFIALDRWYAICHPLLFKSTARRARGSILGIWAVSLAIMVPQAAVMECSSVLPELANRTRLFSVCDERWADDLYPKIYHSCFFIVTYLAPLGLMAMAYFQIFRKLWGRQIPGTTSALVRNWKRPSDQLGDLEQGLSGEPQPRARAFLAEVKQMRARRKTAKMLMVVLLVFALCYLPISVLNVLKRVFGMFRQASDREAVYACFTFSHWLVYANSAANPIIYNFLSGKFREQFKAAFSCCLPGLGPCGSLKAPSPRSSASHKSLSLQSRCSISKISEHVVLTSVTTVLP
# assayComment: IPone accumulation assay, CHO cells expressing human OX1 receptor
# Assay type: cell-based
# measurementSetup: antagonism of orexin A (EC80) induced inositol phosphate turnover, read-out: fpKb average OX1 (converted)
// units = nM; emit number, no label

# example entries with known answers
O=C(N[C@H]1CCC[C@@H]1COc1ccc(F)cc1)c1c(F)cccc1-c1ncccn1 = 20
COc1ccc(F)c(-n2nccn2)c1C(=O)N[C@H]1CCC[C@@H]1COc1ccc(F)cc1 = 20

Okay, now this molecule:
Which measured Kb value corresponds to COc1cccc(-c2ncccn2)c1C(=O)N[C@H]1CCC[C@@H]1COc1ccc(F)cn1 ?
50.1
